Each record here notes measured half-life.
- assay-details: Pharmacokinetic evaluation in SD rats
- Format: in vivo
- experimental-context: both sexes, rat, plasma, po, i.g., 2.0 mg/kg, read-out: Half-life T½ (converted)
Write it as a number; the unit h goes unstated.

Examples with answers:
So for COc1cccc(OC)c1S(=O)(=O)Nc1noc2cc(Cn3cccn3)c3c(c12)OCCC3 [Compound 2] , the logged half-life turned out to be 2.96

So for Cc1ccc(S(=O)(=O)Nc2noc3cc(Cn4cccn4)c4c(c23)OCC4)c(OCC(F)(F)F)c1 [Compound 21] , the logged half-life turned out to be 9.58

So for COc1cccc(OC(F)(F)F)c1S(=O)(=O)Nc1noc2cc(Cn3cccn3)c3c(c12)OCC3 [Compound 23] , the logged half-life turned out to be 13.7

New cases:
So for CCOc1cc(C)ccc1S(=O)(=O)Nc1noc2cc(Cn3cccn3)c3c(c12)OCCC3 [Compound 7] , the logged half-life turned out to be 6.71
